SYSTEM NAME: Dual specificity tyrosine-phosphorylation-regulated kinase 1A (Homo sapiens)
ASSAY DETAILS: Inhibition of human recombinant 6xHis-tagged DYRK1A catalytic domain (1 to 502 residues) extracted from Escherichia coli BL21 (DE3) cells incubated for 30 mins by Bradford's reagent based analysis
pIC50: −log10 of the molar value.
Threshold rule: pIC50 greater than or equal to 5 is label 1; below that, label 0.

Some entries whose results are on file:
INSERT INTO results (structure, class_name) VALUES
  ('COc1ccc(-c2cnc3[nH]cc(-c4ccc(F)c(F)c4)c3c2)cc1OC', 'label 1'),
  ('COc1ccc(-c2cnc3[nH]cc(-c4ccc(F)cc4)c3c2)cc1OC', 'label 1'),
  ('Oc1ccc(-c2cnc3[nH]cc(-c4ccc(O)c(O)c4)c3c2)cc1O', 'label 1'),
  ('Oc1ccc(-c2cnc3[nH]cc(-c4ccc(F)c(F)c4)c3c2)cc1O', 'label 0'),
  ('COc1ccc(-c2c[nH]c3ncc(-c4ccc(OCc5ccccc5)c(OCc5ccccc5)c4)cc23)cc1OC', 'label 0'),
  ('COc1ccc(-c2cnc3[nH]cc(-c4ccc(OC)c(OC)c4)c3c2)cc1OC', 'label 0');

Threshold query (pIC50 >= 5) on COc1ccc(-c2c[nH]c3ncc(-c4ccc(O)c(O)c4)cc23)cc1OC
label 1

Threshold query (pIC50 >= 5) on COc1ccc(-c2c[nH]c3ncc(-c4ccc(OC)c(OC)c4)cc23)cc1
label 1

Values compiled from ChEMBL document CHEMBL6083232.
